- test-summary: Inhibition of TNF-alpha (unknown origin) by ELISA assay
Listed next: entries and their corresponding IC50.
Write the answer as a number in nM, unit excluded.

Recorded IC50, per entry:
[[record]]
compound = "COP(=O)(OC)Oc1ccc([N+](=O)[O-])cc1"
assay_endpoint = "IC50"
numeric_result = 890

[[record]]
compound = "CCOP(=O)(OCC)SCCSCC"
assay_endpoint = "IC50"
numeric_result = 1160

[[record]]
compound = "CCSCCSP(=O)(OC)OC"
assay_endpoint = "IC50"
numeric_result = 20600


Query :: // returns reported IC50 for input CCOC(=O)C1=C(C)N=c2s/c(=C\c3ccc(N4CCOCC4)cc3)c(=O)n2C1c1ccccc1 (configuration not stated)
Result :: 3310

Query :: Which IC50 is reported for this compound? `CCCC[C@@H]1OC(=O)C2=CCCC[C@H]21`
Result :: 6380

Query :: Sample CC(C)=CCN1Cc2cc(C)cc3[nH]c(=S)n(c23)CC1C (configuration not stated) — what was its IC50?
Result :: 629

Query :: For `CC(C)=CCN1Cc2cc(Cl)c(Cl)c3nc(S)n(c23)C[C@@H]1C` , what is its reported IC50?
Result :: 1420
